- test method notes: qHTS assay for cell viability of the p53RE-bla HCT-116 cell line (AID 743292); further: nearly all actives have a fitted effect of over 55% in size
- experimental parameters: p53RE-bla HCT-116 viability, ATP luminescence, 16 h; series mostly up to 95 µM
Inconclusive results are not listed. Active and inactive are the calls of the source. The call rests on the fitted dose curve; in most records, active means well fitted cell-killing curve with a large enough effect; inconclusive means small, poorly fitted or top-dose-only effect, or effect the other way; inactive means flat fitted curve, though single readings scatter.
observed property: outcome

[[record]]
smiles = "CCC(C)(C)c1ccc(O)cc1"
test_result = "inactive"

[[record]]
smiles = "[N-]=[N+]=CC(=O)OC[C@H](N)C(=O)O"
test_result = "inactive"

[[record]]
smiles = "O=C1c2ccccc2C(=O)c2ccccc21"
test_result = "inactive"


---

- assay system: DNA repair nuclease/redox regulator APEX1 (Homo sapiens) (UniProt P27695)
- Sequence (P27695 whole entry, looked up): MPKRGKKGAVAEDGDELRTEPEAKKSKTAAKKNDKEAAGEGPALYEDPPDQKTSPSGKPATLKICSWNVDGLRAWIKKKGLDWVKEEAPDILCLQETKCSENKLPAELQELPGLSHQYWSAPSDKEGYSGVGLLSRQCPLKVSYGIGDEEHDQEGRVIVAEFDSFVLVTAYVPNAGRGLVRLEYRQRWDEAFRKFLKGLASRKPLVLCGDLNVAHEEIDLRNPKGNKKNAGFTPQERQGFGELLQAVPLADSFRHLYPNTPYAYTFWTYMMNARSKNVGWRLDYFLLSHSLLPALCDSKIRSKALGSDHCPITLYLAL
- test method notes: qHTS Validation Assay for Inhibitors of the Human Apurinic/apyrimidinic Endonuclease 1 (APE1) (AID 1705)
- experimental parameters: purified APE1 endonuclease activity, fluorescence, titration; series mostly up to 57.1 µM
Results filed as inconclusive are left out. Calls of active or inactive are those of the source. The call rests on the fitted dose curve; in most records, active means well fitted inhibition curve with a large enough effect; inconclusive means small, poorly fitted or top-dose-only effect; inactive means flat fitted curve, though single readings scatter.
Outcomes you can answer with include only these: active, inactive

[[record]]
molecule = "O=c1[nH]oc2c1CCNC2"
assay_system = "DNA repair nuclease/redox regulator APEX1 (Homo sapiens) (UniProt P27695)"
class_assignment = "inactive"

[[record]]
molecule = "O=C(O)CCCc1ccc(N(CCCl)CCCl)cc1"
assay_system = "DNA repair nuclease/redox regulator APEX1 (Homo sapiens) (UniProt P27695)"
class_assignment = "inactive"

[[record]]
molecule = "CC(C)c1cccc(C(C)C)c1O"
assay_system = "DNA repair nuclease/redox regulator APEX1 (Homo sapiens) (UniProt P27695)"
class_assignment = "inactive"


Query: Per the assay record, what outcome was assigned to `C=C(C)[C@H]1CN[C@H](C(=O)O)[C@H]1CC(=O)O` ?
Result: inactive

Query: Per the assay record, what outcome was assigned to CC(NC(C)(C)C)C(=O)c1cccc(Cl)c1 (stereo unspecified) ?
Result: inactive

Query: Per the assay record, what outcome was assigned to `CCCCC/C=C\C/C=C\C/C=C\C/C=C\CCCC(=O)NCC(=O)O` ?
Result: active

---

- test method notes: Quantitative High-Throughput drug screen in 47 multiple myeloma cell lines against the NCATS MIPE library collection: JIM3_ECACC cell viability assay (AID 1918963; further: nearly all actives have a fitted effect of over 35% in size)
- experimental parameters: JIM3 myeloma viability, CellTiter-Glo ATP, 48 h; series mostly up to 45.8 µM
Results filed as inconclusive are left out. Activity calls are given as the source filed them. The call rests on the fitted dose curve; in most records, active means well fitted cell-killing curve with a large enough effect; inconclusive means small, poorly fitted or top-dose-only effect; inactive means no such curve, though single readings can be large or run the other way.
Outcomes you can answer with include only these: Y (active), N (inactive)

Look over these answered cases.
[[record]]
compound = "O=C(O)CCCc1ccc(N(CCCl)CCCl)cc1"
class_assignment = "N"

[[record]]
compound = "C[C@](O)(CS(=O)(=O)c1ccc(F)cc1)C(=O)Nc1ccc(C#N)c(C(F)(F)F)c1"
class_assignment = "Y"

[[record]]
compound = "COc1cc(OC)c(OC)cc1C=O"
class_assignment = "N"


Now turn to the next compound.
Query: Per the assay record, what outcome was assigned to `C[C@]12CC[C@H]3[C@@H](CC[C@@]45O[C@H]4C(O)=C(C#N)C[C@]35C)[C@H]1CC[C@H]2O` ?
Result: N

---

- test method notes: Cell Viability - LYMP2-017 (AID 972);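 further: cells exposed to compound for 24 hours at 37 °C; nearly all actives have a fitted effect of over 55% in size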
- experimental parameters: LYMP2-017 lymphoblastoid cell viability; series mostly up to 92.2 µM
- Description: NIH Chemical Genomics Center [NCGC] NIH Molecular Libraries Screening Centers Network [MLSCN] National Institutes of Environmental Health Sciences [NIEHS] National Toxicology Program [NTP] We have developed a 1536-well cell-based assay for quantitative high throughput screening (qHTS) against a number of cell lines to determine in vitro cytotoxicity of small molecules. […] 8. Detection; Luminescence; Viewlux plate reader […]
Results filed as inconclusive are left out. The source made the active and inactive calls. Calls follow the shape of the dose curve; as a rule, active = well fitted cell-killing curve with a large enough effect; inconclusive = small, poorly fitted or top-dose-only effect; inactive = flat fitted curve, though single readings scatter.
observed property: outcome

Examples with their reported outcome follow.
[[record]]
smiles = "Oc1ccc(Cl)cc1"
observed_property = "outcome"
test_result = "inactive"

[[record]]
smiles = "Nc1ccccc1"
observed_property = "outcome"
test_result = "inactive"

[[record]]
smiles = "COP(=S)(OC)Oc1ccc(SC)c(C)c1"
observed_property = "outcome"
test_result = "inactive"

[[record]]
smiles = "Clc1ccc(C(c2ccc(Cl)cc2)C(Cl)(Cl)Cl)cc1"
observed_property = "outcome"
test_result = "inactive"

[[record]]
smiles = "CCCC(C)(COC(N)=O)COC(N)=O"
observed_property = "outcome"
test_result = "inactive"


outcome in this record for `CC(C)NC(C)C` : inactive

outcome in this record for `CC(C)c1cccc(C(C)C)c1O` : inactive

outcome in this record for `Nc1ccccc1C(=O)O` : inactive

---

- assay system: Retinoic acid receptor RXR-alpha (Homo sapiens) (UniProt P19793)
- Sequence (P19793 whole entry, looked up): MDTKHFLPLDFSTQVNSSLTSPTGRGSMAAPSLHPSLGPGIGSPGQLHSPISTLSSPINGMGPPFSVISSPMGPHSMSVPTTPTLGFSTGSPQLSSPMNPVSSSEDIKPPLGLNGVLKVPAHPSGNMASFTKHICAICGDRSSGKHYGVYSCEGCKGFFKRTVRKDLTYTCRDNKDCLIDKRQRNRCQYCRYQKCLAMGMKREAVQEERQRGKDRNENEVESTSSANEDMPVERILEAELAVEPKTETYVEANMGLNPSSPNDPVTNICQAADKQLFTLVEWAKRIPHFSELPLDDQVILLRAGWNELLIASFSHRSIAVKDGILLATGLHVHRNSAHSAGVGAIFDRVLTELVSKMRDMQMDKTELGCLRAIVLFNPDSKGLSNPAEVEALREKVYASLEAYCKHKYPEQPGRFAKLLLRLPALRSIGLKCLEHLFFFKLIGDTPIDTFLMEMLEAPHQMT
- test method notes: qHTS assay for small molecule agonists of retinoid X receptor alpha signaling (AID 588544); further: potency means the concentration at half of the fitted maximal effect
- experimental parameters: HEK293T RXRa-UAS-bla, beta-lactamase reporter, 18 h; series mostly up to 76.7 µM
Inconclusive results are not listed. Calls of active or inactive are those of the source. The call rests on the fitted dose curve.
observed property: Potency

[[record]]
compound = "COP(=S)(OC)Oc1ccc(SC)c(C)c1"
assay_system = "Retinoic acid receptor RXR-alpha (Homo sapiens) (UniProt P19793)"
test_result = "inactive"

[[record]]
compound = "O=C1c2ccccc2C(=O)C1C(=O)C(c1ccccc1)c1ccccc1"
assay_system = "Retinoic acid receptor RXR-alpha (Homo sapiens) (UniProt P19793)"
test_result = "inactive"

[[record]]
compound = "O=C(Oc1ccccc1)c1ccccc1O"
assay_system = "Retinoic acid receptor RXR-alpha (Homo sapiens) (UniProt P19793)"
test_result = "inactive"

[[record]]
compound = "CC(C)c1cccc(C(C)C)c1O"
assay_system = "Retinoic acid receptor RXR-alpha (Homo sapiens) (UniProt P19793)"
test_result = "inactive"

[[record]]
compound = "O=C1c2ccccc2C(=O)c2ccccc21"
assay_system = "Retinoic acid receptor RXR-alpha (Homo sapiens) (UniProt P19793)"
test_result = "35.5 µM (active)"


Potency in this record for `[N-]=[N+]=CC(=O)OC[C@H](N)C(=O)O` : inactive

Potency in this record for `Oc1ccccc1` : inactive

Potency in this record for `COP(=S)(OC)Oc1cc(Cl)c(Cl)cc1Cl` : inactive

Potency in this record for O=P1(N(CCCl)CCCl)NCCCO1 (stereo not drawn) : inactive

Potency in this record for `C[C@]12CCC(=O)C=C1CC[C@@H]1[C@@H]2CC[C@@]2(C)[C@H]1CC[C@]2(C)O` : inactive

Potency in this record for `Oc1ccc(Cl)cc1` : inactive

Potency in this record for `C[C@]1(O)CC[C@H]2[C@@H]3CCC4=CC(=O)CC[C@]4(C)[C@@]3(F)[C@@H](O)C[C@@]21C` : inactive

Potency in this record for `Nc1ccccc1C(=O)O` : inactive

---

- test method notes: Primary qHTS for small molecule stabilizers of the endoplasmic reticulum resident proteome: Secreted ER Calcium Modulated Protein (SERCaMP) assay (AID 1508630)
- experimental parameters: SH-SY5Y GLuc-SERCaMP (Gaussia luciferase released on ER calcium loss) secretion, thapsigargin, luminescence; series mostly up to 38.4 µM
Records with an inconclusive call do not appear. Calls of active or inactive are those of the source. Calls follow the shape of the dose curve; as a rule, active = well fitted inhibition curve with a large enough effect; inconclusive = small, poorly fitted or top-dose-only effect; inactive = no such curve, though single readings can be large or run the other way.
observed property: outcome

Examples with their reported outcome follow.
[[record]]
molecule = "CCCCCCCCCC(=O)O[C@H]1CC[C@H]2[C@@H]3CCC4=CC(=O)CC[C@@H]4[C@H]3CC[C@]12C"
observed_property = "outcome"
test_result = "inactive"

[[record]]
molecule = "COC1CC(=C(c2cccs2)c2cccs2)C[N+](C)(C)C1 (centres undefined)"
observed_property = "outcome"
test_result = "inactive"

[[record]]
molecule = "COP(=S)(OC)Oc1ccc(S(=O)(=O)N(C)C)cc1"
observed_property = "outcome"
test_result = "inactive"

[[record]]
molecule = "C=C(C)[C@H]1CN[C@H](C(=O)O)[C@H]1CC(=O)O"
observed_property = "outcome"
test_result = "inactive"

[[record]]
molecule = "O=c1c(C2CC(c3ccc(-c4ccc(Br)cc4)cc3)Cc3ccccc32)c(O)sc2ccccc12 (centres undefined)"
observed_property = "outcome"
test_result = "inactive"

[[record]]
molecule = "NC(=O)c1cc([N+](=O)[O-])cc([N+](=O)[O-])c1"
observed_property = "outcome"
test_result = "inactive"

[[record]]
molecule = "CCC(C)(C)c1ccc(O)cc1"
observed_property = "outcome"
test_result = "inactive"

[[record]]
molecule = "CN1CCC(O)(c2ccc(F)cc2)C(C(=O)c2ccc(F)cc2)C1 (centres undefined)"
observed_property = "outcome"
test_result = "inactive"

[[record]]
molecule = "O=C1c2ccccc2C(=O)C1C(=O)C(c1ccccc1)c1ccccc1"
observed_property = "outcome"
test_result = "inactive"

[[record]]
molecule = "CC(C)=CC1C(C(=O)OCN2C(=O)C3=C(CCCC3)C2=O)C1(C)C (centres undefined)"
observed_property = "outcome"
test_result = "inactive"


outcome in this record for CC(C)(C)NCC(O)c1cc(Cl)c(N)c(C(F)(F)F)c1 (centres undefined) : inactive

outcome in this record for `O=C(O)CCCc1ccc(N(CCCl)CCCl)cc1` : inactive

Origin of the recorded values: PubChem BioAssay (NCATS)
